test: Cell viability by MTT analysis; assay type: cell-based; details: human, Caco-2 cells, after 48 hours, percentage of control
Metric name: viability at 48 h, 0.1 % (w/v) (%)
Could you give me the number in %? Just the number is fine.

For reference, reported viability at 48 h, 0.1 % (w/v) for CCCC(=O)[O-].[Na+] [NaB, Sodium Butyrate] stands at 81

---

experiment: Cell viability by MTT analysis; type: cell-based; conditions: human, Caco-2 cells, after 72 hours, percentage of control
Metric name: viability at 72 h, 0.1 % (w/v)

For reference, reported viability at 72 h, 0.1 % (w/v) for CCCC(=O)[O-].[Na+] [NaB, Sodium Butyrate] stands at 45%
